Attribution: ChEMBL document CHEMBL4414590

# study.system: von Hippel-Lindau disease tumor suppressor/Tyrosine-protein kinase ABL1/Breakpoint cluster region protein (Homo sapiens, UniProt P00519+P11274+P40337)
# Sequence (P00519 whole entry): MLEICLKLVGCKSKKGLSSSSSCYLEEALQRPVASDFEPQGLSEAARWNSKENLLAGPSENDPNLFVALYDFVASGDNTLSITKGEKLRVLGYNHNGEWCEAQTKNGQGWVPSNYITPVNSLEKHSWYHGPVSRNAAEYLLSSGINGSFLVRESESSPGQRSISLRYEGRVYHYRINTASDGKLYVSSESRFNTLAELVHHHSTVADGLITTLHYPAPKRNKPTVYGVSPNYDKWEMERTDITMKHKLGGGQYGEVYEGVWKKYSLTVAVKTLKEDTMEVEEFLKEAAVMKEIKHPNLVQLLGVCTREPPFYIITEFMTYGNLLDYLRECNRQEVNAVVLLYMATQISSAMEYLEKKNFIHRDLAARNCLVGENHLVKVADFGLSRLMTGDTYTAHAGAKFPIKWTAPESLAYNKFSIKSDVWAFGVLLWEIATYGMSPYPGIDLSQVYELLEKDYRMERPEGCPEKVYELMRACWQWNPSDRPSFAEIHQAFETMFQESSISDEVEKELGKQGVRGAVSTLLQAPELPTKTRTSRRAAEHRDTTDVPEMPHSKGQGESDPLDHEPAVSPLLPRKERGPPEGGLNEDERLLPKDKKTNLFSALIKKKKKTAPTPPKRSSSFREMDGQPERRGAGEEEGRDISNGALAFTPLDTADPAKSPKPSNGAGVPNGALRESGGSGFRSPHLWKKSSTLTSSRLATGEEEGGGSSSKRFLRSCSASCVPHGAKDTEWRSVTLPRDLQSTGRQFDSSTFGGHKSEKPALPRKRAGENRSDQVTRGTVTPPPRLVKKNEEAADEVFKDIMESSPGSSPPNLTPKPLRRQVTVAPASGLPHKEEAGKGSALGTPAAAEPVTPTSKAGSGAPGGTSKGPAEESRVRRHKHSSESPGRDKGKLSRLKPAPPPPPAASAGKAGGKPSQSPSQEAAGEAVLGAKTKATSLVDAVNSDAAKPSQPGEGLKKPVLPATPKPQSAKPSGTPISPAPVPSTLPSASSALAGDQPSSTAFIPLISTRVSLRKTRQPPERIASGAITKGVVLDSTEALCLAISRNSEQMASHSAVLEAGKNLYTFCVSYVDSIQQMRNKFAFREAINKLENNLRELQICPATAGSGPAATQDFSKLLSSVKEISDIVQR
# Sequence (P11274 whole entry): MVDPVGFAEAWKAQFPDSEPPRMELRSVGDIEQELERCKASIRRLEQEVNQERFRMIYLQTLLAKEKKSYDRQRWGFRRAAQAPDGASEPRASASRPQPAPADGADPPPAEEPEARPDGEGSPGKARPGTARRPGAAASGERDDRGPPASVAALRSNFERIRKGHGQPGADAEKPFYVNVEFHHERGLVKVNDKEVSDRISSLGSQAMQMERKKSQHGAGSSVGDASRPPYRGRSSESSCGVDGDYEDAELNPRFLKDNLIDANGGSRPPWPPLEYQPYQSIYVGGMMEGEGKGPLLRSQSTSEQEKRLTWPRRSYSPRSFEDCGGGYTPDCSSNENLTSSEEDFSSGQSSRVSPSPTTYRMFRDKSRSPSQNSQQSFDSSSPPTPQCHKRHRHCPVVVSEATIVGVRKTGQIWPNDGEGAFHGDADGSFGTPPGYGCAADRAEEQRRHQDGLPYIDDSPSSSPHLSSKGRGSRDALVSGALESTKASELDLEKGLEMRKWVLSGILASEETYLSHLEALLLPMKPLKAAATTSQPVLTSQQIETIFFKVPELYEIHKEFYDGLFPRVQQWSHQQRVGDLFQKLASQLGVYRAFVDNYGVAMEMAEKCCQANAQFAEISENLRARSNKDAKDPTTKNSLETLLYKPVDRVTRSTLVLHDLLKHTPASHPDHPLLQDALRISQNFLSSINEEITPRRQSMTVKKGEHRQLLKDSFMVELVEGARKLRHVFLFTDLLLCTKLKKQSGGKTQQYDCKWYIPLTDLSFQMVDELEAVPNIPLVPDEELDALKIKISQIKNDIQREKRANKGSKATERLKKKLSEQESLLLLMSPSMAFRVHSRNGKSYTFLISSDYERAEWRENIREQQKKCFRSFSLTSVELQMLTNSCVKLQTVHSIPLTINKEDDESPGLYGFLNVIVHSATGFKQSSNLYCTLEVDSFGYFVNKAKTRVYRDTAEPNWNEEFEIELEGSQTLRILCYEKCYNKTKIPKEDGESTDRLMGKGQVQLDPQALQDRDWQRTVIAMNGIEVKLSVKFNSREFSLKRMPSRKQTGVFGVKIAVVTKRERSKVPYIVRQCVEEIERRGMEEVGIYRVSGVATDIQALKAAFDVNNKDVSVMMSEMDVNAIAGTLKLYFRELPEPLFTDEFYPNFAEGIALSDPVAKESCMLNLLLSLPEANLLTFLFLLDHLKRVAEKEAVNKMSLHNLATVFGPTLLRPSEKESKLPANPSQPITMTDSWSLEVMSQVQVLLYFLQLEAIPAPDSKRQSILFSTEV
# Sequence (P40337 whole entry): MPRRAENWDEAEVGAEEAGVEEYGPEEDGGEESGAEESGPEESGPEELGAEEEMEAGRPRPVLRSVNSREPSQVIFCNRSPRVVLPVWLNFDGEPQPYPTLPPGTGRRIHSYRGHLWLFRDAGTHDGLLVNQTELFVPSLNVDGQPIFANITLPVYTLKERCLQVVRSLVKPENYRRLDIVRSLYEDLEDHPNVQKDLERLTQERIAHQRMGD
# test.details: Protac activity against VHL/BCR-ABL in human K562 cells assessed as induction of BCR-ABL degradation by Western blot analysis
# Format: cell-based
readout: DC50
A complete answer gives the number followed by the unit.

stdin: Quickly give me recorded DC50 for Cc1nc(Nc2ncc(C(=O)Nc3c(C)cccc3Cl)s2)cc(N2CCN(C(=O)CCCCCCC(=O)N[C@H](C(=O)N3C[C@H](O)C[C@H]3C(=O)NCc3ccc(-c4scnc4C)cc3)C(C)(C)C)CC2)n1
stdout: 8.5 nM

stdin: Quickly give me recorded DC50 for Cc1nc(Nc2ncc(C(=O)Nc3c(C)cccc3Cl)s2)cc(N2CCN(C(=O)CCCCCCCCC(=O)N[C@H](C(=O)N3C[C@H](O)C[C@H]3C(=O)NCc3ccc(-c4scnc4C)cc3)C(C)(C)C)CC2)n1
stdout: 10.1 nM

stdin: Identify measured DC50 corresponding to Cc1nc(Nc2ncc(C(=O)Nc3c(C)cccc3Cl)s2)cc(N2CCN(C(=O)CCC(=O)N[C@H](C(=O)N3C[C@H](O)C[C@H]3C(=O)NCc3ccc(-c4scnc4C)cc3)C(C)(C)C)CC2)n1
stdout: 611 nM

stdin: Give a short answer stating reported DC50 for Cc1nc(Nc2ncc(C(=O)Nc3c(C)cccc3Cl)s2)cc(N2CCN(C(=O)CCCCCC(=O)N[C@H](C(=O)N3C[C@H](O)C[C@H]3C(=O)NCc3ccc(-c4scnc4C)cc3)C(C)(C)C)CC2)n1 .
stdout: 17.9 nM

stdin: For the molecule Cc1nc(Nc2ncc(C(=O)Nc3c(C)cccc3Cl)s2)cc(N2CCN(C(=O)CCCC(=O)N[C@H](C(=O)N3C[C@H](O)C[C@H]3C(=O)NCc3ccc(-c4scnc4C)cc3)C(C)(C)C)CC2)n1 , give its measured DC50 value.
stdout: 40.2 nM

stdin: Provide one value: measured DC50 of Cc1nc(Nc2ncc(C(=O)Nc3c(C)cccc3Cl)s2)cc(N2CCN(C(=O)CCCCC(=O)N[C@H](C(=O)N3C[C@H](O)C[C@H]3C(=O)NCc3ccc(-c4scnc4C)cc3)C(C)(C)C)CC2)n1
stdout: 34.7 nM

stdin: Provide only the value of recorded DC50 for Cc1nc(Nc2ncc(C(=O)Nc3c(C)cccc3Cl)s2)cc(N2CCN(C(=O)CCCCCCCC(=O)N[C@H](C(=O)N3C[C@H](O)C[C@H]3C(=O)NCc3ccc(-c4scnc4C)cc3)C(C)(C)C)CC2)n1
stdout: 37.9 nM
